Recorded IC50 for the following molecules
# Test target: UniProtKB P35372
# Sequence (P35372 whole entry): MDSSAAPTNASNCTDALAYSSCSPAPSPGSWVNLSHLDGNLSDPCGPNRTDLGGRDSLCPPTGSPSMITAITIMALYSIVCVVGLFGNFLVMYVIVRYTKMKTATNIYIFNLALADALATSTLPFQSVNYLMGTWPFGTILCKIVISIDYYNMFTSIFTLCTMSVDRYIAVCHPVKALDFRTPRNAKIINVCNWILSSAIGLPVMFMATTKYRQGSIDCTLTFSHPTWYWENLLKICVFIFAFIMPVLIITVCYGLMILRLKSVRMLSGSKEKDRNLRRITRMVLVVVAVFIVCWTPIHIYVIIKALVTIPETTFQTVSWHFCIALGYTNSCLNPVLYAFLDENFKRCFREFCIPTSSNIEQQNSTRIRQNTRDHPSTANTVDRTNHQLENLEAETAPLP
# Assay procedure: Antagonist activity assessed as inhibition of loperamide-stimulated [35S]GTPgammaS binding to human mu opioid receptor expressed in CHO cells

- Smiles input: "C[C@H]1CN2CCN(Cc3ccccc3O)C[C@H]2C[C@@]1(C)c1cccc(O)c1"
  Test target: "UniProtKB P35372"
  Unit info: "nM"
  IC50: 1.6
- Smiles input: "C[C@H]1CN2CCN(Cc3ccc(Cl)cc3)C[C@H]2C[C@@]1(C)c1cccc(O)c1"
  Test target: "UniProtKB P35372"
  Unit info: "nM"
  IC50: 42
- Smiles input: "Cc1ccc(CN2CCN3C[C@H](C)[C@](C)(c4cccc(O)c4)C[C@@H]3C2)cc1"
  Test target: "UniProtKB P35372"
  Unit info: "nM"
  IC50: 9.5
- Smiles input: "C[C@H]1CN2CCN(Cc3cccc(O)c3)C[C@H]2C[C@@]1(C)c1cccc(O)c1"
  Test target: "UniProtKB P35372"
  Unit info: "nM"
  IC50: 4.5
- Smiles input: "C[C@H]1CN2CCN(Cc3ccccc3)C[C@H]2C[C@@]1(C)c1cccc(O)c1"
  Test target: "UniProtKB P35372"
  Unit info: "nM"
  IC50: 0.73
- Smiles input: "C[C@H]1CN2CCN(C(=O)Nc3ccccc3)C[C@H]2C[C@@]1(C)c1cccc(O)c1"
  Test target: "UniProtKB P35372"
  Unit info: "nM"
  IC50: 16
- Smiles input: "C[C@H]1CN2CCN(Cc3ccccc3Cl)C[C@H]2C[C@@]1(C)c1cccc(O)c1"
  Test target: "UniProtKB P35372"
  Unit info: "nM"
  IC50: 1.8
- Smiles input: "C[C@H]1CN2CCN(Cc3ccc4ccccc4c3)C[C@H]2C[C@@]1(C)c1cccc(O)c1"
  Test target: "UniProtKB P35372"
  Unit info: "nM"
  IC50: 74
- Smiles input: "C[C@H]1CN2C[C@H](c3ccccc3)NC[C@H]2C[C@@]1(C)c1cccc(O)c1"
  Test target: "UniProtKB P35372"
  Unit info: "nM"
  IC50: 1.1
- Smiles input: "C[C@H]1CN2CCN(Cc3cccc(Cl)c3)C[C@H]2C[C@@]1(C)c1cccc(O)c1"
  Test target: "UniProtKB P35372"
  Unit info: "nM"
  IC50: 1.8
- Smiles input: "C[C@H]1CN2CCN(Cc3ccc(O)cc3)C[C@H]2C[C@@]1(C)c1cccc(O)c1"
  Test target: "UniProtKB P35372"
  Unit info: "nM"
  IC50: 5.7

====

# Test target: Delta-type opioid receptor (Homo sapiens, UniProt P41143)
# Sequence (P41143 whole entry): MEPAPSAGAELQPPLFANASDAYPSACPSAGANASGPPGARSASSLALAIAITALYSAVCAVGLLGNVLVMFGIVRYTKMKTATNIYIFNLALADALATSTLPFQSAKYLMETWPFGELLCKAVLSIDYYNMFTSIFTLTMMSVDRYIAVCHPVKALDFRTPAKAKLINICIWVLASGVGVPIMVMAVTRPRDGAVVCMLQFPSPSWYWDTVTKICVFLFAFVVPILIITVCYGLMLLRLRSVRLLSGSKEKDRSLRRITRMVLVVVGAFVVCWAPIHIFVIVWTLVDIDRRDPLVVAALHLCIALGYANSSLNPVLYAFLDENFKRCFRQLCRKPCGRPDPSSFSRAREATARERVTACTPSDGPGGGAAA
# Assay procedure: Displacement of [3H]diprenorphine from human cloned delta opioid receptor expressed in CHO cells

- Smiles input: "Cc1ccccc1CN1CCN2C[C@H](C)[C@](C)(c3cccc(O)c3)C[C@@H]2C1"
  Unit info: "µM"
  Ki: 0.089
- Smiles input: "C[C@H]1CN2CCN(Cc3ccoc3)C[C@H]2C[C@@]1(C)c1cccc(O)c1"
  Unit info: "µM"
  Ki: 0.74
- Smiles input: "C[C@H]1CN2CCN(C(=O)Cc3ccccc3)C[C@H]2C[C@@]1(C)c1cccc(O)c1"
  Unit info: "µM"
  Ki: 0.071
- Smiles input: "C[C@H]1CN2C[C@H](c3ccccc3)N(Cc3ccccc3)C[C@H]2C[C@@]1(C)c1cccc(C(N)=O)c1"
  Unit info: "µM"
  Ki: 1.1
